Taken from paper PMC6002953.

Tested on: P-glycoprotein (MDR1)
assayDetails: BBB permeability, bidirectional transport through MDCK-MDR1 monolayers
setupConditions: dog, MDCK-MDR1, pH 7.4
valueKind: efflux ratio at 90 min, 10 μM
# print the numeric value only

// fetch efflux ratio at 90 min, 10 μM given entry COc1ccc(CC2c3cc(N(C)C)c(OC)cc3CCN2CC(=O)NCc2cccnc2)cc1N(C)C (stereo not shown)
3.3

###

experimentalTarget: UniProt O43614
Sequence (O43614 whole entry): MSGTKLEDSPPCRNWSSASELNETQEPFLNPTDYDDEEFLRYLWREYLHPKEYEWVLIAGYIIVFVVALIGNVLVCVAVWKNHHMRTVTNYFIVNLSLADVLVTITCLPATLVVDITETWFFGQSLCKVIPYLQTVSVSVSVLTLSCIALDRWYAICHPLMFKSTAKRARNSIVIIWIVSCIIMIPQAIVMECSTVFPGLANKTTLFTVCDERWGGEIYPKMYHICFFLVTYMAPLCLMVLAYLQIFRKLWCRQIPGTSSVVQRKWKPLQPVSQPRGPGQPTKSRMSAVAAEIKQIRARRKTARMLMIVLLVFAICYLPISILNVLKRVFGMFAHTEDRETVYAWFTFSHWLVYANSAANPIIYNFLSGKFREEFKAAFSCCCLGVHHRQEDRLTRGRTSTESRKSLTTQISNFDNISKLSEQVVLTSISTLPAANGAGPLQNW
assayDetails: Calcium mobilization Ke assay, OX2
valueKind: Kd (µM)
Report the figure in µM without appending any unit label.

// fetch Kd given entry COC(=O)Nc1cc(CC2c3cc(NC(=O)OC)c(OC)cc3CCN2CC(=O)NCc2ccccc2)ccc1OC (stereo not shown) [Compound 38]
0.592

// fetch Kd given entry COc1cc2c(cc1N(C)C)C(Cc1cccc(N(C)C)c1)N(CC(=O)NCc1ccccc1)CC2 (stereo not shown) [Compound 42]
1.36

// fetch Kd given entry COc1ccc(CC2c3cc(N(C)C)c(OC)cc3CCN2CC(=O)NCc2ccccc2)cc1N(C)C (stereo not shown) [Compound 39]
0.857
